Cited source: the supplement of paper PMC5998384

- System: HeLa Kyoto
- protocolDescription: solubility change mitosis vs G1/S (difference of NP-40 vs SDS log2 ratios) (log2 ratio difference); higher = more soluble in mitosis
Give YES when the value for solubility change mitosis (log2) is at least 0.06. Give NO when it is less.

# chainSequence, category
measured = [
    ("MSQGDSNPAAIPHAAEDIQGDDRWMSQHNRFVLDCKDKEPDVLFVGDSMVQLMQQYEIWRELFSPLHALNFGIGGDTTRHVLWRLKNGELENIKPKVIVVWVGTNNHENTAEEVAGGIEAIVQLINTRQPQAKIIVLGLLPRGEKPNPLRQKNAKVNQLLKVSLPKLANVQLLDTDGGFVHSDGAISCHDMFDFLHLTGGGYAKICKPLHELIMQLLEETPEEKQTTIA [PAFAH1B2]", "NO"),
    ("MAERGRKRPCGPGEHGQRIEWRKWKQQKKEEKKKWKDLKLMKKLERQRAQEEQAKRLEEEEAAAEKEDRGRPYTLSVALPGSILDNAQSPELRTYLAGQIARACAIFCVDEIVVFDEEGQDAKTVEGEFTGVGKKGQACVQLARILQYLECPQYLRKAFFPKHQDLQFAGLLNPLDSPHHMRQDEESEFREGIVVDRPTRPGHGSFVNCGMKKEVKIDKNLEPGLRVTVRLNQQQHPDCKTYHGKVVSSQDPRTKAGLYWGYTVRLASCLSAVFAEAPFQDGYDLTIGTSERGSDVASAQLPNFRHALVVFGGLQGLEAGADADPNLEVAEPSVLFDLYVNTCPGQGSRTIRTEEAILISLAALQPGLIQAGARHT [C9ORF114]", "YES"),
    ("MTKAGSKGGNLRDKLDGNELDLSLSDLNEVPVKELAALPKATILDLSCNKLTTLPSDFCGLTHLVKLDLSKNKLQQLPADFGRLVNLQHLDLLNNKLVTLPVSFAQLKNLKWLDLKDNPLDPVLAKVAGDCLDEKQCKQCANKVLQHMKAVQADQERERQRRLEVEREAEKKREAKQRAKEAQERELRKREKAEEKERRRKEYDALKAAKREQEKKPKKEANQAPKSKSGSRPRKPPPRKHTRSWAVLKLLLLLLLFGVAGGLVACRVTELQQQPLCTSVNTIYDNAVQGLRRHEILQWVLQTDSQQ [LRRC59]", "YES"),
    ("MVDLTQVMDDEVFMAFASYATIILSKMMLMSTATAFYRLTRKVFANPEDCVAFGKGENAKKYLRTDDRVERVRRAHLNDLENIIPFLGIGLLYSLSGPDPSTAILHFRLFVGARIYHTIAYLTPLPQPNRALSFFVGYGVTLSMAYRLLKSKLYL [MGST1]", "NO"),
]

###

Reported thermal stability score is given for each of the following sequences.
- System: HeLa Kyoto
- protocolDescription: thermal stability score vs G1/S (z-score of summed log2 fold changes over temperatures); higher = more thermally stable than in G1/S
- measurementSetup: cell cycle stage: mitosis

# chainSequence, thermal stability score
records = [
    ("MSLGRLCRLLKPALLCGALAAPGLAGTMCASRDDWRCARSMHEFSAKDIDGHMVNLDKYRGFVCIVTNVASQUGKTEVNYTQLVDLHARYAECGLRILAFPCNQFGKQEPGSNEEIKEFAAGYNVKFDMFSKICVNGDDAHPLWKWMKIQPKGKGILGNAIKWNFTKFLIDKNGCVVKRYGPMEEPLVIEKDLPHYF [GPX4]", -2.1),
    ("MSEKSVEAAAELSAKDLKEKKEKVEEKASRKERKKEVVEEEENGAEEEEEETAEDGEEEDEGEEEDEEEEEEDDEGPALKRAAEEEDEADPKRQKTENGASA [PTMS]", -2.62),
    ("MTSLTQRSSGLVQRRTEASRNAADKERAAGGGAGSSEDDAQSRRDEQDDDDKGDSKETRLTLMEEVLLLGLKDREGYTSFWNDCISSGLRGCMLIELALRGRLQLEACGMRRKSLLTRKVICKSDAPTGDVLLDEALKHVKETQPPETVQNWIELLSGETWNPLKLHYQLRNVRERLAKNLVEKGVLTTEKQNFLLFDMTTHPLTNNNIKQRLIKKVQEAVLDKWVNDPHRMDRRLLALIYLAHASDVLENAFAPLLDEQYDLATKRVRQLLDLDPEVECLKANTNEVLWAVVAAFTK [GOLPH3]", -0.641),
]

###

- Tested on: HeLa Kyoto
- protocolDescription: solubility change mitosis vs G1/S (difference of NP-40 vs SDS log2 ratios) (log2 ratio difference); higher = more soluble in mitosis
Measured solubility change mitosis (log2) accompanies every entry in the list below.

# chainSequence, solubility change mitosis (log2)
rows = [
    ("MANNDAVLKRLEQKGAEADQIIEYLKQQVSLLKEKAILQATLREEKKLRVENAKLKKEIEELKQELIQAEIQNGVKQIPFPSGTPLHANSMVSENVIQSTAVTTVSSGTKEQIKGGTGDEKKAKEKIEKKGEKKEKKQQSIAGSADSKPIDVSRLDLRIGCIITARKHPDADSLYVEEVDVGEIAPRTVVSGLVNHVPLEQMQNRMVILLCNLKPAKMRGVLSQAMVMCASSPEKIEILAPPNGSVPGDRITFDAFPGEPDKELNPKKKIWEQIQPDLHTNDECVATYKGVPFEVKGKGVCRAQTMSNSGIK [AIMP1]", 0.02),
    ("MAENREPRGAVEAELDPVEYTLRKRLPSRLPRRPNDIYVNMKTDFKAQLARCQKLLDGGARGQNACSEIYIHGLGLAINRAINIALQLQAGSFGSLQVAANTSTVELVDELEPETDTREPLTRIRNNSAIHIRVFRVTPK [POP7]", -0.0753),
    ("MAALGVLESDLPSAVTLLKNLQEQVMAVTAQVKSLTQKVQAGAYPTEKGLSFLEVKDQLLLMYLMDLTHLILDKASGGSLQGHDAVLRLVEIRTVLEKLRPLDQKLKYQIDKLIKTAVTGSLSENDPLRFKPHPSNMMSKLSSEDEEEDEAEDDQSEASGKKSVKGVSKKYVPPRLVPVHYDETEAEREKKRLERAKRRALSSSVIRELKEQYSDAPEEIRDARHPHVTRQSQEDQHRINYEESMMVRLSVSKREKGRRKRANVMSSQLHSLTHFSDISALTGGTVHLDEDQNPIKKRKKIPQKGRKKKGFRRRR [NGDN]", 0.93),
]

###

- System: HeLa Kyoto
- protocolDescription: solubility change mitosis vs G1/S (difference of NP-40 vs SDS log2 ratios) (log2 ratio difference); higher = more soluble in mitosis
Hi, to clarify the labels: y covers solubility change mitosis (log2) from -0.09 upward, n covers anything below -0.09.

# chainSequence, category
measured = [
    ("MPFLELDTNLPANRVPAGLEKRLCAAAASILGKPADRVNVTVRPGLAMALSGSTEPCAQLSISSIGVVGTAEDNRSHSAHFFEFLTKELALGQDRILIRFFPLESWQIGKIGTVMTFL [DDT]", "y"),
    ("MSDLRITEAFLYMDYLCFRALCCKGPPPARPEYDLVCIGLTGSGKTSLLSKLCSESPDNVVSTTGFSIKAVPFQNAILNVKELGGADNIRKYWSRYYQGSQGVIFVLDSASSEDDLEAARNELHSALQHPQLCTLPFLILANHQDKPAARSVQEIKKYFELEPLARGKRWILQPCSLDDMDALKDSFSQLINLLEEKDHEAVRM [ARL15]", "n"),
    ("MGNLLKVLTCTDLEQGPNFFLDFENAQPTESEKEIYNQVNVVLKDAEGILEDLQSYRGAGHEIREAIQHPADEKLQEKAWGAVVPLVGKLKKFYEFSQRLEAALRGLLGALTSTPYSPTQHLEREQALAKQFAEILHFTLRFDELKMTNPAIQNDFSYYRRTLSRMRINNVPAEGENEVNNELANRMSLFYAEATPMLKTLSDATTKFVSENKNLPIENTTDCLSTMASVCRVMLETPEYRSRFTNEETVSFCLRVMVGVIILYDHVHPVGAFAKTSKIDMKGCIKVLKDQPPNSVEGLLNALRYTTKHLNDETTSKQIKSMLQ [FAM49B]", "y"),
    ("MAEPQPPSGGLTDEAALSCCSDADPSTKDFLLQQTMLRVKDPKKSLDFYTRVLGMTLIQKCDFPIMKFSLYFLAYEDKNDIPKEKDEKIAWALSRKATLELTHNWGTEDDETQSYHNGNSDPRGFGHIGIAVPDVYSACKRFEELGVKFVKKPDDGKMKGLAFIQDPDGYWIEILNPNKMATLM [GLO1]", "y"),
    ("MSVTLHTDVGDIKIEVFCERTPKTCENFLALCASNYYNGCIFHRNIKGFMVQTGDPTGTGRGGNSIWGKKFEDEYSEYLKHNVRGVVSMANNGPNTNGSQFFITYGKQPHLDMKYTVFGKVIDGLETLDELEKLPVNEKTYRPLNDVHIKDITIHANPFAQ [PPIL3]", "y"),
    ("MDNLSSEEIQQRAHQITDESLESTRRILGLAIESQDAGIKTITMLDEQKEQLNRIEEGLDQINKDMRETEKTLTELNKCCGLCVCPCNRTKNFESGKAYKTTWGDGGENSPCNVVSKQPGPVTNGQLQQPTTGAASGGYIKRITNDAREDEMEENLTQVGSILGNLKDMALNIGNEIDAQNPQIKRITDKADTNRDRIDIANARAKKLIDS [SNAP23]", "y"),
    ("MGGLFWRSALRGLRCGPRAPGPSLLVRHGSGGPSWTRERTLVAVKPDGVQRRLVGDVIQRFERRGFTLVGMKMLQAPESVLAEHYQDLRRKPFYPALIRYMSSGPVVAMVWEGYNVVRASRAMIGHTDSAEAAPGTIRGDFSVHISRNVIHASDSVEGAQREIQLWFQSSELVSWADGGQHSSIHPA [NME4]", "n"),
    ("MPNIVLFSGSSHQDLSQRVADRLGLELGKVVTKKFSNQETSVEIGESVRGEDVYIIQSGCGEINDNLMELLIMINACKIASSSRVTAVIPCFPYARQDKKDKSRAPISAKLVANMLSVAGADHIITMDLHASQIQGFFDIPVDNLYAEPAVLQWIRENIAEWKNCIIVSPDAGGAKRVTSIADRLNVEFALIHKERKKANEVDRMVLVGDVKDRVAILVDDMADTCGTICHAADKLLSAGATKVYAILTHGIFSGPAISRINNAAFEAVVVTNTIPQEDKMKHCTKIQVIDISMILAEAIRRTHNGESVSYLFSHVPL [PRPS2]", "n"),
    ("MGTKAQVERKLLCLFILAILLCSLALGSVTVHSSEPEVRIPENNPVKLSCAYSGFSSPRVEWKFDQGDTTRLVCYNNKITASYEDRVTFLPTGITFKSVTREDTGTYTCMVSEEGGNSYGEVKVKLIVLVPPSKPTVNIPSSATIGNRAVLTCSEQDGSPPSEYTWFKDGIVMPTNPKSTRAFSNSSYVLNPTTGELVFDPLSASDTGEYSCEARNGYGTPMTSNAVRMEAVERNVGVIVAAVLVTLILLGILVFGIWFAYSRGHFDRTKKGTSSKKVIYSQPSARSEGEFKQTSSFLV [F11R]", "n"),
]
